Catalogue of pEC50 values
- System tested: Free fatty acid receptor 1 (Homo sapiens)
- Sequence (O14842 whole entry): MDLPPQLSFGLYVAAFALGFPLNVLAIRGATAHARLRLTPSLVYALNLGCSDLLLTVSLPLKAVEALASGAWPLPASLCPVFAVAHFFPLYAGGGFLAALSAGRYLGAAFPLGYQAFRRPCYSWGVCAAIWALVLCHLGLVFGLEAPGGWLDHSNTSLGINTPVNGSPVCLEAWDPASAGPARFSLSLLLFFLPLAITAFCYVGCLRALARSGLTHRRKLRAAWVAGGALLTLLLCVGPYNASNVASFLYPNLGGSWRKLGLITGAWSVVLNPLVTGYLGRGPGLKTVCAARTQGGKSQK
- Assay info: Agonist activity at human GPR40 by FLIPR assay in presence of 1% BSA
- Type: functional
- Run conditions: read-out: EC50
pEC50: −log10 of the molar value.

{"Molecule": "O=C1NC(=O)C(Cc2ccc(Oc3ncc(Cl)cc3Cl)cc2Cl)S1 (stereo unspecified)", "pEC50": 7.20}
{"Molecule": "O=C1NC(=O)C(Cc2ccccc2Oc2ccccc2)S1 (stereo unspecified)", "pEC50": 4.95}
{"Molecule": "O=C1NC(=O)C(Cc2ccc(Oc3cc(Cl)cc(Cl)c3)cc2)S1 (stereo unspecified)", "pEC50": 6.68}
{"Molecule": "Cc1cc(Oc2ccc(CC3SC(=O)NC3=O)cc2)nc(C(F)(F)F)c1 (stereo unspecified)", "pEC50": 6.16}
{"Molecule": "O=C1NC(=O)C(Cc2ccc(CCc3ccccc3)cc2)S1 (stereo unspecified)", "pEC50": 5.97}
{"Molecule": "O=C1NC(=O)C(Cc2ccc(Oc3ccc(Cl)cn3)cc2)S1 (stereo unspecified)", "pEC50": 5.73}
{"Molecule": "O=C1NC(=O)C(Cc2ccc(Oc3ncc(C(F)(F)F)cc3Cl)cc2)S1 (stereo unspecified)", "pEC50": 7.16}
{"Molecule": "O=C1NC(=O)C(Cc2ccc(Oc3ccccc3)cc2)S1 (stereo unspecified)", "pEC50": 6.51}
{"Molecule": "Cc1ccc(Oc2ccc(CC3SC(=O)NC3=O)cc2)nc1 (stereo unspecified)", "pEC50": 5.35}
{"Molecule": "Cc1cc(Oc2ccc(C(F)(F)F)cc2Cl)ccc1CC1SC(=O)NC1=O (stereo unspecified)", "pEC50": 7.74}
{"Molecule": "Cc1ccc(Oc2ccc(CC3SC(=O)NC3=O)cc2)cc1C (stereo unspecified)", "pEC50": 6.14}
